ASSAYED TARGET: KAT8 (Homo sapiens, UniProt Q9H7Z6)
Sequence (Q9H7Z6 whole entry): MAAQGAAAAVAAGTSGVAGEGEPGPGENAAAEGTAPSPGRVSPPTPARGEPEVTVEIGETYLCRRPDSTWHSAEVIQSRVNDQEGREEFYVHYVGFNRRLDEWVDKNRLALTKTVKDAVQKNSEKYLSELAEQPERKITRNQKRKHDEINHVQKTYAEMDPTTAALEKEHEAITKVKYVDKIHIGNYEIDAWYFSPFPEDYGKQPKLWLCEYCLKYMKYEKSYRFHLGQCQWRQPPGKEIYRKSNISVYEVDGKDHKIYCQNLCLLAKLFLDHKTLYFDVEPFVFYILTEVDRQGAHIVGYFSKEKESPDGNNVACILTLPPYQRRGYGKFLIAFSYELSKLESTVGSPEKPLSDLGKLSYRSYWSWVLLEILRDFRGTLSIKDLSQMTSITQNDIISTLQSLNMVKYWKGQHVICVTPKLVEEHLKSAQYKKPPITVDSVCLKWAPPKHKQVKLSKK
TEST DESCRIPTION: FDA library screening (analysis service PLEXERA) and binding strength, KAT8
READOUT NAME: inhibition of function of KAT8

C[N+]1(C)CCC(OC(=O)C(O)(c2ccccc2)C2CCCC2)C1 (centres unmarked) [glycopyrrolate] :: inhibited only KAT8
O=C([O-])c1ccccc1-c1c2cc(Br)c(=O)cc-2oc2[c]([Hg+])c([O-])c(Br)cc12.[Na+].[Na+].[OH-] [merbromin] :: inhibited only KAT8
